Biological target: T1, human PD-L1 ECD-His (human, UniProt Q9NZQ7 19-238)
T1 construct: extracellular domain; Analyte in all SPR and BLI runs; also called hPD-L1_ECD-His; hPD-L1 ECD-His; not shown: His tag
T1 sequence (Q9NZQ7 19-238): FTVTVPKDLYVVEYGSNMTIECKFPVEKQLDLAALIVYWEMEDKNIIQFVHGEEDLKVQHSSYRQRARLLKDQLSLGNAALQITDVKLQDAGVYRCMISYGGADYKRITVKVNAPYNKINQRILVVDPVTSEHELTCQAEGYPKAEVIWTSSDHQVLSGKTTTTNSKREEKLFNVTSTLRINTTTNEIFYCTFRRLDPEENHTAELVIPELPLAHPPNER
Assay: SPR, 25 C, antibody captured by anti-human IgG Fc, hPD-L1_ECD-His analyte, 1:1 fit
Description: Experiments were carried out at 25° C., and measurements were made with serial dilutions of hPD-L1_ECD-His from 55.4 nM to 11.1 nM passing over the captured antibodies in HBS-P+ buffer supplemented with 0.1% (w/v) BSA with a flow rate of […]. All data were analyzed with the evaluation software and curves were fit with a 1:1 Langmuir binding model. Data are representative of two independent experiments performed in duplicate.
Experimental endpoint: kon (M⁻¹ s⁻¹)
The reply should be a number in M⁻¹ s⁻¹, with the unit left off.

Q) I would be grateful if you could share the reported kon for PL1 (full-length, N297A mutant human IgG1) (antibody, V domains shown) VH: QIQLVQSGAEVKKPGSSVKVSCKASGGTFSSYAISWVRQAPGQGLEWMGRIIPILGIANYAQKFQGRVTITAGESTSTAYMELSSLRSEDTAVYYCAREGSSGWLGVLDYWGQGTLVTVSS VL: QAVLTQPSSVSGAPGQRVTISCTGSSSNVGAGYDVHWYQQLPGTAPKLLIYGNSNRPSGVPDRFSGSKSGTSASLAITGLQAEDEADYYCQSYDSSLSGWVFGGGTKLTVLG .
A) 291000
